For each entry below, report its EC50 value.
Study Target: T1, human CLDN18.2 (human)
T1 construct: The construct in the CLDN18.2-overexpressing BxPC-3 and NCI-N87 lines is not described; KATOIII and NUGC-4 express CLDN18.2 naturally; All are written here as this one molecule; also called Claudin 18.2; tight junction protein 18.2
T1 sequence (chain, as listed by the source limits assumed): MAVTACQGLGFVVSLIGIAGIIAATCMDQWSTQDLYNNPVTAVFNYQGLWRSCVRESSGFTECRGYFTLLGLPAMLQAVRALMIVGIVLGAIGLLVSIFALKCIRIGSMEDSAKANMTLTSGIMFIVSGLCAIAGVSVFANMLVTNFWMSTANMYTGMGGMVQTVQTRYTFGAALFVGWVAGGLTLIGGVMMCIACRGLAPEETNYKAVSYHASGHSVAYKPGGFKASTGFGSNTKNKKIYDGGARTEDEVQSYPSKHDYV
Protocol Notes: flow cytometry, CLDN18.2-overexpressing NIH-3T3 cells
Numbers only, in nM.

>>> observed_value("hz28G3-1.3-DDDXd (with DAR of 7.6) (antibody, human IgG1, kappa, DAR 7.6, V domains shown, linker-payload MC-GGFG-DDDXd (compound H) conjugated to cysteines of the reduced inter-chain disulfide bonds; positions not given; linker-payload MC-GGFG-DDDXd (compound H) conjugated to cysteines of the reduced inter-chain disulfide bonds; positions not given; DAR 7.6 for the whole molecule, also called anti-CLDN18.2 antibody-drug conjugate) VH: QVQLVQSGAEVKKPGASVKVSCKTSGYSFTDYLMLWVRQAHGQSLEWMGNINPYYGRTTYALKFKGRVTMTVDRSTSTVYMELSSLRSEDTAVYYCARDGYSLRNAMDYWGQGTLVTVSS VL: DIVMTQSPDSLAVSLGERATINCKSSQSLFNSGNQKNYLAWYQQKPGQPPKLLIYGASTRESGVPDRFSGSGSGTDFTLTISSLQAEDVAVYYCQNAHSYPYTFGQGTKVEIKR")
0.593
>>> observed_value("humanized antibody hz28G3-1.3 (antibody, human IgG1, kappa, V domains shown, Naked humanized anti-CLDN18.2 antibody, human IgG1 / kappa, expressed in CHO cells) VH: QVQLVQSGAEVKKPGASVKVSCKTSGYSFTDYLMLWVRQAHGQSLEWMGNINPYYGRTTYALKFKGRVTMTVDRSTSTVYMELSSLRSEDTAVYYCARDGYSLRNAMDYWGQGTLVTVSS VL: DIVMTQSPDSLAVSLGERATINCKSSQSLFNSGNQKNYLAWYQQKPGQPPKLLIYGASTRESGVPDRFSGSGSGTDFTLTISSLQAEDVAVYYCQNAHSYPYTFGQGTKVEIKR")
1.76
>>> observed_value("humanized antibody hz28G3-1.1 (antibody, human IgG1, kappa, V domains shown, Naked humanized anti-CLDN18.2 antibody, human IgG1 / kappa, expressed in CHO cells) VH: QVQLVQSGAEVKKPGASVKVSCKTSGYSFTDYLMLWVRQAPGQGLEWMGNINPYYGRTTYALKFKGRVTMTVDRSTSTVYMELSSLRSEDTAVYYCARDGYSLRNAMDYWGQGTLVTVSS VL: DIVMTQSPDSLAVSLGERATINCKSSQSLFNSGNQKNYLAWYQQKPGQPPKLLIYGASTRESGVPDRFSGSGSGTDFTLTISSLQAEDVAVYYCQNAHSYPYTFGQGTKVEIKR")
2.27

Q: For hz28G3-1.1-DDDXd (with DAR of 7.4) (antibody, human IgG1, kappa, DAR 7.4, V domains shown, linker-payload MC-GGFG-DDDXd (compound H) conjugated to cysteines of the reduced inter-chain disulfide bonds; positions not given; linker-payload MC-GGFG-DDDXd (compound H) conjugated to cysteines of the reduced inter-chain disulfide bonds; positions not given; DAR 7.4 for the whole molecule, also called anti-CLDN18.2 antibody-drug conjugate) VH: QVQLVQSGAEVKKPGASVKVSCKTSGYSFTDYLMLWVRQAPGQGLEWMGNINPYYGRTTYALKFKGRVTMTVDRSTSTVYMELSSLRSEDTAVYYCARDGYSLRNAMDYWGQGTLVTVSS VL: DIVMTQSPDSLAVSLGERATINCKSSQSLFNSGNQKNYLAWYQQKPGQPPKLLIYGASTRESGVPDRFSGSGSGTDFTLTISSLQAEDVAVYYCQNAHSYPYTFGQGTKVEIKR , what is its reported EC50?
Ans: 0.896
